Cited source: the C3SDB collision cross section collection

conditions: [M+K]+; instrument: DT; stepped-field
The entries below come with measured collision cross section (N2) values attached.
Kindly format the answer as number then unit.

Sample answers from the record:
CC/C=C\C/C=C\C/C=C\C/C=C\C/C=C\C/C=C\CCC(=O)O[C@H](COC(=O)CCCCCCCCC/C=C\CCCCCCCC)COP(=O)(O)OCCN    291.12 Å²
CCCCCC/C=C\CCCCCCCC(=O)OC[C@H](COP(=O)(O)OCCN)OC(=O)CCCCCCCCC/C=C\CCCCCCCC    280.72 Å²
CCCCCCC/C=C\CCCCCCCC(=O)O[C@H](COC(=O)CCCCCCC/C=C\CCCCCCCC)COP(=O)(O)OCCN    277.37 Å²

Complete the entry with collision cross section (N2) for CCCCC/C=C\C/C=C\CCCCCCCCCCCC(=O)O[C@H](COC(=O)CCCCCCCCCCC)COP(=O)(O)OCCN 274.83 Å²

For CCCCC/C=C\C/C=C\C/C=C\CCCCCCC(=O)O[C@H](COC(=O)CCCCCCC/C=C\C/C=C\CCCCC)COP(=O)(O)OC[C@H](N)C(=O)O , write its collision cross section (N2). 286.6 Å²

For the molecule CC/C=C\C/C=C\C/C=C\C/C=C\CCCCC(=O)O[C@H](COC(=O)CCCCCCC/C=C\CCCCCCCC)COP(=O)(O)OCCN , give its reported collision cross section (N2). 274.4 Å²
